The reported measurements were obtained from paper PMC6128713.

assay type: physicochemical; settings: Buffer pH 7.4, 308.15 K
Rule: mole fraction solubility (x) under 5 x · 10^6 gives FALSE, otherwise TRUE.

Previously resolved entries follow.
Compound	Label Class
CN1CCc2c(c3ccccc3n2CCc2n[nH]c(=S)n2C)C1 [Compound I]	FALSE
CN1CCc2c(c3cc(F)ccc3n2CCc2n[nH]c(=S)n2C)C1 [Compound IV]	TRUE
COc1ccc2c(c1)c1c(n2CCc2n[nH]c(=S)n2C)CCN(C)C1 [III]	TRUE

In: Could you tell me if the measured mole fraction solubility (x) of Cc1ccc2c(c1)c1c(n2CCc2n[nH]c(=S)n2C)CCN(C)C1 [Compound II] reaches 5 x · 10^6 or more?
Out: FALSE
